tested.target: Sigma^70 saturated E. coli RNA Polymerase (Escherichia coli, UniProt P0A7Z4+P0A800+P0A8T7+P0A8V2)
Construct: purchased Epicenter
Sequence (P0A8V2 whole entry): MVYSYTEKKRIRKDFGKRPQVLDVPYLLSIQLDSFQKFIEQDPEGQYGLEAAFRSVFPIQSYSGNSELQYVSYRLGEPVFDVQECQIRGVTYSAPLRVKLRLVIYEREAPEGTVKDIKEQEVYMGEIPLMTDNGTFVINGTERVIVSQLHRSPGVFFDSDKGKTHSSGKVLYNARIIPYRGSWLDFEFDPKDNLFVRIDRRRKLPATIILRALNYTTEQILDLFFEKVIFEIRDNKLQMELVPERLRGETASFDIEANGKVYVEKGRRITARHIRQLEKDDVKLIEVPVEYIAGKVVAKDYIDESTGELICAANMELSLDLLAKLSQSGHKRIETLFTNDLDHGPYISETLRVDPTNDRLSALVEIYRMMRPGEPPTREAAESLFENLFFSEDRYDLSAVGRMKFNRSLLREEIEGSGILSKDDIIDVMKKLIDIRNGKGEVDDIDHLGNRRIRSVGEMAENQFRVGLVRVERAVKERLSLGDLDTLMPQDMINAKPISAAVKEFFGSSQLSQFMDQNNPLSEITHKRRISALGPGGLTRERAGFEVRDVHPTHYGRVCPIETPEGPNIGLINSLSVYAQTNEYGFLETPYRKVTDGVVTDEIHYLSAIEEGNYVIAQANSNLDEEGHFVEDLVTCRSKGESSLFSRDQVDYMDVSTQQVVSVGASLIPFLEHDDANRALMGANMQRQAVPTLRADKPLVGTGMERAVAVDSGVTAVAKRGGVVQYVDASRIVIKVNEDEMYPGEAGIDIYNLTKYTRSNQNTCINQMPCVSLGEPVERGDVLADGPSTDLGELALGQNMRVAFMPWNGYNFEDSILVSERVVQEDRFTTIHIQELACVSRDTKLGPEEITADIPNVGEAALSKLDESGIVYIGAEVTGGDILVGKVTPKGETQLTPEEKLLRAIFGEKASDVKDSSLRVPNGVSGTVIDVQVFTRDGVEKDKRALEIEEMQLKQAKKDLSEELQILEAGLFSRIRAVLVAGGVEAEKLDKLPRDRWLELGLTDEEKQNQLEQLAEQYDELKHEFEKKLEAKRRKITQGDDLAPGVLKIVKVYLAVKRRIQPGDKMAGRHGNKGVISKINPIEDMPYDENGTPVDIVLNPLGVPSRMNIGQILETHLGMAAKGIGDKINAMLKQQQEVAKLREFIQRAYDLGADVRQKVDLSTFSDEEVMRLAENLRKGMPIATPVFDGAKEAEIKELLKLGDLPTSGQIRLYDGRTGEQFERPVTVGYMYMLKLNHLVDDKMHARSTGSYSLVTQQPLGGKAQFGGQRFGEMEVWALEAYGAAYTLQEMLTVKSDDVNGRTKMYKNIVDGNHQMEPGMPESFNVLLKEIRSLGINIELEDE
Sequence (P0A8T7 whole entry): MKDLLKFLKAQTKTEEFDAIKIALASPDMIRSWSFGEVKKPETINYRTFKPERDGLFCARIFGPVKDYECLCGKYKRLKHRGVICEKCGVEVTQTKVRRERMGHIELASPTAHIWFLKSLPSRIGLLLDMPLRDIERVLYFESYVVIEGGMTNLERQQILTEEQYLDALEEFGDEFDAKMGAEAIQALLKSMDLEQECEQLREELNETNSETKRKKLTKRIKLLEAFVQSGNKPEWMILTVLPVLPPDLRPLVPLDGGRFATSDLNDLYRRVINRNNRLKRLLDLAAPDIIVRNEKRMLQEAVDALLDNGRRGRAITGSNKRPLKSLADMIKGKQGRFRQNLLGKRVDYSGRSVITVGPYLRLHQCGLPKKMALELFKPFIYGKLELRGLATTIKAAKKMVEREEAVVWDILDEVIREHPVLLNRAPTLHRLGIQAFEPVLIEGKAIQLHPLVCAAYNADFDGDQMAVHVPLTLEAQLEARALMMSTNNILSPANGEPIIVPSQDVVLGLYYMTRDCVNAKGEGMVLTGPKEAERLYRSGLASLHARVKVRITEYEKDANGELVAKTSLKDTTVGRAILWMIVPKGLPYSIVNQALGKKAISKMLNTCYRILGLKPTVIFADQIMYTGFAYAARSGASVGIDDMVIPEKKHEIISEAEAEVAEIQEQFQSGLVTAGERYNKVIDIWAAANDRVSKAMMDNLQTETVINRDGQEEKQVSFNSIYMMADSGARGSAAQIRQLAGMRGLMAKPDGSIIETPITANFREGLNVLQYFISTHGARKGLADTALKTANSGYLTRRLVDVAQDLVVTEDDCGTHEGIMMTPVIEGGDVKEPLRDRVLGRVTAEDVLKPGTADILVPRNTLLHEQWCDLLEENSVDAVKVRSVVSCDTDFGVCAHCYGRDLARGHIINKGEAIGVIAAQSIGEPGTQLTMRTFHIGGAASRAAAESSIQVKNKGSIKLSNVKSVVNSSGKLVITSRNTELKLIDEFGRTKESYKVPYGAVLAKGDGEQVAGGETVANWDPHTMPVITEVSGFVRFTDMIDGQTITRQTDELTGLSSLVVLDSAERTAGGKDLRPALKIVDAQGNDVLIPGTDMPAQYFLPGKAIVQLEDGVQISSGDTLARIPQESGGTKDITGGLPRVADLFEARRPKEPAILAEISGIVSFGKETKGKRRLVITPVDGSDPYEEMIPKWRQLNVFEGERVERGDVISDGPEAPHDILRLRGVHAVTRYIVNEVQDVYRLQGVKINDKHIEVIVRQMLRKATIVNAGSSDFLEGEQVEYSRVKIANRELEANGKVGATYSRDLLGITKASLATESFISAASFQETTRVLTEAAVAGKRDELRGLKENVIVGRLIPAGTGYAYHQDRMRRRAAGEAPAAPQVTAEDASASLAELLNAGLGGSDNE
Sequence (P0A7Z4 whole entry): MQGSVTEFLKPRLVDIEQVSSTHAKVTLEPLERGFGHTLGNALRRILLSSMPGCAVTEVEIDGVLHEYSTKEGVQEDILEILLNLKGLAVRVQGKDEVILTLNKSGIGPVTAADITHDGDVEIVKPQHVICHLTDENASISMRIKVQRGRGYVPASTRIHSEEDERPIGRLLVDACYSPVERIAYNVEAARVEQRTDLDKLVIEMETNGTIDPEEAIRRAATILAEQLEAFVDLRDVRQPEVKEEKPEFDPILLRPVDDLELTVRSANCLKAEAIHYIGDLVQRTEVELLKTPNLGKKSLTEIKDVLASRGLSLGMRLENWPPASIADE
Sequence (P0A800 whole entry): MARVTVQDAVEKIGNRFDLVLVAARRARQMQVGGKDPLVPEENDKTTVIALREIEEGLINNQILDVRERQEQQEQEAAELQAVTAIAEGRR
assay.protocol: IC50 assay, inhibition of RNA polymerase
Assay type: biochemical
experimental.setup: Table 2, compounds of Formula 13
Experimental: One common assay involves evaluation of the compounds as RNA polymerase inhibitors. In this assay, buffer (250 mM KCl, 5% glycerol, 10 mM MgCl2, 0.1 mg/ml BSA) is combined with 6 mM β-M.E., PT5 DNA template, and 1.3 μg/rxn Sigma^70 saturated E. coli RNA Polymerase (Epicenter). The compound is then added in a manner not to exceed 5% DMSO. […] The plate is then read on a Fujix Bas1000 Imaging System and quantified using MacBas v2.0 software. […]
measured.metric: IC50

// worked examples, IC50 included
O=c1[nH][nH]c(-c2ccc(Cl)cc2)c1-c1cccc(C(F)(F)F)c1 :: < 500 µM
O=c1[nH][nH]c(-c2ccc(Cl)cc2)c1-c1ccccc1 :: > 500 µM
O=c1[nH][nH]c(-c2ccccc2)c1-c1cccc(C(F)(F)F)c1 :: > 500 µM

Task: Provide only the value of recorded IC50 for O=c1[nH][nH]c(-c2cccc(C(F)(F)F)c2)c1-c1ccccc1
Result: < 500 µM

----------
System: E.c(tolC)
assay.protocol: Minimum Inhibitory Concentration assay, E.c(tolC)
Type: cell-based
experimental.setup: 16 h, read-out: MIC (μM) E.c(tolC)
measured.metric: MIC

// worked examples, MIC included
NCCCNc1cc(-c2c[nH]nc2-c2ccc(F)cc2)cc(C(F)(F)F)c1 :: < 500 µM
NS(=O)(=O)c1ccc(CCNc2ccc(-c3c[nH]nc3-c3ccc(F)cc3)cc2C(F)(F)F)cc1 :: < 500 µM
O=C(NCCCNc1cc(-c2c[nH]nc2-c2ccc(F)cc2)cc(C(F)(F)F)c1)Nc1ccc(Cl)c(C(F)(F)F)c1 :: > 500 µM
Nc1cccc(-c2c[nH]nc2-c2ccc(F)c(C(F)(F)F)c2)c1 :: < 500 µM
Fc1ccc(-c2n[nH]cc2-c2ccc(F)c(C(F)(F)F)c2)cc1 :: < 500 µM

Task: Provide only the value of recorded MIC for Clc1cccc(-c2cn[nH]c2-c2ccc(Cl)c(Cl)c2)c1
Result: < 500 µM

Task: Provide only the value of recorded MIC for Clc1ccc(-c2[nH]ncc2-c2ccccc2)cc1Cl
Result: < 500 µM

Task: Provide only the value of recorded MIC for Cc1ccc(-c2[nH]ncc2-c2ccccc2)cc1
Result: < 500 µM

----------
The entries below are paired with their reported pIC50.
tested.target: Sigma^70 saturated E. coli RNA Polymerase (Escherichia coli, UniProt P0A7Z4+P0A800+P0A8T7+P0A8V2)
Construct: purchased Epicenter
assay.protocol: IC50 assay, inhibition of RNA polymerase
Assay type: biochemical
experimental.setup: Table 1, compounds of Formula 1
pIC50: −log10 of the molar value.

// worked examples, pIC50 included
Fc1ccc(-c2cn[nH]c2-c2cccc(Cl)c2)cc1C(F)(F)F [Example 11] :: < 3.30
NS(=O)(=O)c1ccc(CCNc2ccc(-c3c[nH]nc3-c3ccc(F)cc3)cc2C(F)(F)F)cc1 [Example 22] :: > 3.30
Fc1ccc(-c2n[nH]cc2-c2ccc(NCCNCc3ccccc3)c(C(F)(F)F)c2)cc1 [Example 21] :: > 3.30
Fc1ccc(-c2n[nH]cc2-c2ccc(NCCN3CCNCC3)c(C(F)(F)F)c2)cc1 [Example 20] :: > 3.30
Nc1cccc(-c2c[nH]nc2-c2ccc(F)c(C(F)(F)F)c2)c1 [Example 34] :: > 3.30
NC1CCN(c2ccc(-c3c[nH]nc3-c3ccc(F)cc3)cc2C(F)(F)F)C1 (stereo not shown) [Example 24] :: > 3.30

Task: Provide only the value of recorded pIC50 for NCCCNc1cc(-c2c[nH]nc2-c2ccc(F)cc2)cc(C(F)(F)F)c1 [Example 30]
Result: < 3.30

Task: Provide only the value of recorded pIC50 for O=[N+]([O-])c1cccc(-c2c[nH]nc2-c2ccc(N3CCCCC3)c(C(F)(F)F)c2)c1 [Example 33]
Result: > 3.30

Task: Provide only the value of recorded pIC50 for CS(=O)(=O)Nc1ccc(CCNc2ccc(-c3c[nH]nc3-c3ccc(F)cc3)cc2C(F)(F)F)cc1 [Example 23]
Result: < 3.30

Task: Provide only the value of recorded pIC50 for O=C(NCCCNc1cc(-c2c[nH]nc2-c2ccc(F)cc2)cc(C(F)(F)F)c1)Nc1ccc(Cl)c(C(F)(F)F)c1 [Example 31]
Result: > 3.30

Task: Provide only the value of recorded pIC50 for CS(=O)(=O)Nc1cccc(-c2c[nH]nc2-c2ccc(F)c(C(F)(F)F)c2)c1 [Example 36]
Result: > 3.30

Task: Provide only the value of recorded pIC50 for COc1cccc(-c2[nH]ncc2-c2ccccc2)c1 [Example 2]
Result: < 3.30

Task: Provide only the value of recorded pIC50 for Clc1cccc(-c2[nH]ncc2-c2ccc(Cl)c(Cl)c2)c1 [Example 8]
Result: > 3.30
